Test system: johnsongrass (Sorghum halepense, SORHA)
Test: Post-emerge herbicidal activity, greenhouse screen, SORHA
Assay type: in vivo
Conditions: 63 g ai/ha, rating 0-100 (0 no damage, 100 complete death), 14 days after application
Post-emerge Herbicidal Activity SORHA values by entry

- COMPOUND: "Cn1c(C(F)(F)F)cc(=O)n(-c2c(F)cc(Cl)c3nc(C(C)(C)C)oc23)c1=S [Compound 1-3]"
  Post-emerge Herbicidal Activity SORHA: 65
- COMPOUND: "Cn1c(C(F)(F)F)cc(=O)n(-c2c(F)cc(Cl)c3ncoc23)c1=S [Compound 1-1]"
  Post-emerge Herbicidal Activity SORHA: 95
- COMPOUND: "Cc1cc2c(-n3c(=O)cc(C(F)(F)F)n(C)c3=S)c(F)cc(Cl)c2o1 [Compound 2-2]"
  Post-emerge Herbicidal Activity SORHA: 100
- COMPOUND: "Cn1c(C(F)(F)F)cc(=O)n(-c2ccc(Cl)c3nc(C(C)(C)C)oc23)c1=S [Compound 1-4]"
  Post-emerge Herbicidal Activity SORHA: 20
- COMPOUND: "Cc1nc2c(Cl)cc(F)c(-n3c(=O)cc(C(F)(F)F)n(C)c3=S)c2o1 [Compound 1-2]"
  Post-emerge Herbicidal Activity SORHA: 100
- COMPOUND: "Cn1c(C(F)(F)F)cc(=O)n(-c2c(F)ccc3nc(C(C)(C)C)oc23)c1=S [Compound 1-5]"
  Post-emerge Herbicidal Activity SORHA: 55
